Molecular target: T1, human glycophorin A in the red blood cell membrane (human, UniProt P02724 20-150)
T1 construct: whole, on cells; used for intact RBC, isolated RBC membranes and transfected cells; the assay field tells which; also called GPA; hGPA
T1 sequence (looked up): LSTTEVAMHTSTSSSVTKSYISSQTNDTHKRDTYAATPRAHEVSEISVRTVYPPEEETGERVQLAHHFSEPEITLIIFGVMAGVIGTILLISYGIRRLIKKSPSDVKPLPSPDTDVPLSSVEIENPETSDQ
Test: FACS, RBC Hu03
In this section we review reported fluorescence intensity values for a set of binders.

[[record]]
binder = "Hu6C12-5 (antibody, V domains shown, IgG format; VH.1e + Vk.1) VH: EVQLVQSGAEVKKPGASVKVSCKASGYTFTTYTIHWVRQAPGQGLEWMGYINPSSDYTRYNPKFKDRVTLTTDTSTSTAYMELRSLRSDDTAVYYCATGTRDYWGQGTTVTVSS VL: DIQLTQSPSFLSASVGDRVTITCSAASSVSYIYWYQQKPGKAPKLLIYSTSTLPSGVPSRFSGSGSGTEFTLTISSLQPEDFATYYCHQRNSFPFTFGQGTKLEIK"
value = 758


Exercise: Specify fluorescence intensity for Hu6C12-17 (antibody, V domains shown, IgG format; VH.1 + Vk.1b) VH: EVQLVQSGAEVKKPGASVKVSCKASGYTFTTYTIHWVRQAPGQGLEWMGYINPSSDYTRYNPKFKDRVTMTTDTSTSTAYMELRSLRSDDTAVYYCARGTRDYWGQGTTVTVSS VL: DIQLTQSPSFLSASVGDRVTITCSAASSVSYIYWFQQKPGKAPKLLIYSTSTLPSGVPSRFSGSGSGTEYTLTISSLQPEDFATYYCHQRNSFPFTFGQGTKLEIK and stop.
Solution: 2

Exercise: Give the reported fluorescence intensity for this binder. Hu6C12-4 (antibody, V domains shown, IgG format; VH.1d + Vk.1) VH: EVQLVQSGAEVKKPGASVKVSCKASGYTFTTYTIHWVRQAPGQGLEWMGYINPSSDYTRYNPKFKDRVTLTTDTSTSTAYMELRSLRSDDTAVYYCQRGTRDYWGQGTTVTVSS VL: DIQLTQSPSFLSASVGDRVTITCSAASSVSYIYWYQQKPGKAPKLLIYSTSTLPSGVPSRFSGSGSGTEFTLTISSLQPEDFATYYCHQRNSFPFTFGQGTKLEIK
Solution: 2

Hello, the source for this data is patent US20190359687A1, in case you need it.
